experiment: in vitro; details: human, plasma
RECORDED_ENDPOINT: remaining at 2 h (%)
Numeric answer only, unit % assumed.

Record summary for COc1c(Nc2cc(C)[nH]n2)nc(Sc2ccc(S(=O)(=O)Cc3cccc([N+](=O)[O-])c3F)cc2F)nc1N1CCOCC1 : reported remaining at 2 h = 97.3

----------
experiment: in vitro; details: human, liver microsomes
RECORDED_ENDPOINT: remaining at 1 h

The measured remaining at 1 h associated with COc1c(Nc2cc(C)[nH]n2)nc(Sc2ccc(S(=O)(=O)Cc3cccc([N+](=O)[O-])c3F)cc2F)nc1N1CCOCC1 reads 98.6%

----------
experiment: in vitro; conditions: human, plasma
RECORDED_ENDPOINT: remaining at 0.5 h (%)
Hi! Could you send only the number? It should be in %, unit omitted.

Lab note: COc1c(Nc2cc(C)[nH]n2)nc(Sc2ccc(S(=O)(=O)Cc3cccc([N+](=O)[O-])c3F)cc2F)nc1N1CCOCC1 gave remaining at 0.5 h of 95
